Tested on: DU-145
PROTOCOL NOTES: SRB colorimetric assay of cell growth and viability, DU-145
Assay type: cell-based, human
EXPERIMENTAL CONTEXT: 48 hours exposure, SRB
Where a SMILES comes first, the peptide text is derived from it. Bridges are numbered along the chain shown (N, C = ends). [ ]: non-standard residue; d: D form. The star is where a group is joined. d(aIle) = CC[C@H](C)[C@@H](N)C(=O)O; d(aThr) = C[C@@H](O)[C@@H](N)C(=O)O; hCha = N[C@@H](CCC1CCCCC1)C(=O)O; Hexanoyl(5-Me) = CC(C)CCCC(=O)*; Orn = NCCC[C@H](N)C(=O)O; Dhb = C/C=C(\N)C(=O)O
QUANTITY KIND: LC50 (concentration causing 50% net cell kill) (µM)

>  <COMPOUND>
C/C=C1\NC(=O)[C@H](Cc2ccc(I)cc2)NC(=O)[C@@H](C(C)C)NC(=O)[C@@H]([C@@H](C)CC)NC(=O)[C@H](NC(=O)[C@H](NC(=O)[C@H](CCCN)NC(=O)[C@H]2CCCN2C(=O)[C@H](NC(=O)[C@@H](NC(=O)[C@@H](NC(=O)[C@H](NC(=O)CC[C@@H](C)CC)C(C)C)[C@@H](C)O)C(C)C)C(C)C)[C@@H](C)CC)[C@@H](C)OC(=O)[C@H](C(C)C)NC1=O [Compound 72, [Phe(4-I)^3, (4S)-MeHex^14]-KF]

>  <MEASUREMENT UNITS>
µM

>  <VALUE QUALIFIER>
=

>  <NUMERIC VALUE>
0.425

$$$$
>  <COMPOUND>
C/C=C1\NC(=O)[C@@H](Cc2ccccc2)NC(=O)[C@H](C(C)C)NC(=O)[C@H]([C@H](C)CC)NC(=O)[C@@H](NC(=O)[C@@H](NC(=O)[C@@H](CCCN)NC(=O)[C@@H]2CCCN2C(=O)[C@@H](NC(=O)[C@H](NC(=O)[C@H](NC(=O)[C@@H](NC(=O)CCCC(C)C)C(C)C)[C@H](C)O)C(C)C)C(C)C)[C@H](C)CC)[C@H](C)OC(=O)[C@@H](C(C)C)NC1=O

>  <MEASUREMENT UNITS>
µM

>  <VALUE QUALIFIER>
≥

>  <NUMERIC VALUE>
6.77

$$$$
>  <COMPOUND>
C/C=C1\NC(=O)[C@H](Cc2ccc(Cl)c(Cl)c2)NC(=O)[C@@H](C(C)C)NC(=O)[C@@H]([C@@H](C)CC)NC(=O)[C@H](NC(=O)[C@H](NC(=O)[C@H](CCCN)NC(=O)[C@H]2CCCN2C(=O)[C@H](NC(=O)[C@@H](NC(=O)[C@@H](NC(=O)[C@H](NC(=O)CC[C@@H](C)CC)C(C)C)[C@@H](C)O)C(C)C)C(C)C)[C@@H](C)CC)[C@@H](C)OC(=O)[C@H](C(C)C)NC1=O [Compound 70, [Phe(3,4-Cl2)^3, (4S)-MeHex^14]-KF]

>  <MEASUREMENT UNITS>
µM

>  <VALUE QUALIFIER>
=

>  <NUMERIC VALUE>
0.465

$$$$
>  <COMPOUND>
C/C=C1\NC(=O)[C@H](Cc2ccccc2)NC(=O)[C@@H](C(C)C)NC(=O)[C@@H]([C@@H](C)CC)NC(=O)[C@H](NC(=O)[C@H](NC(=O)[C@H](CCCN)NC(=O)[C@H]2CCCN2C(=O)[C@H](NC(=O)[C@@H](NC(=O)[C@@H](NC(=O)[C@H](NC(=O)CC[C@@H](C)[C@H]2CC[C@H]3[C@@H]4CC[C@@H]5C[C@H](OC(=O)C(F)(F)F)CC[C@]5(C)[C@H]4CC[C@]23C)C(C)C)[C@@H](C)OC(=O)C(F)(F)F)C(C)C)C(C)C)[C@@H](C)CC)[C@@H](C)OC(=O)[C@H](C(C)C)NC1=O

>  <MEASUREMENT UNITS>
µM

>  <VALUE QUALIFIER>
=

>  <NUMERIC VALUE>
2.81

$$$$
>  <COMPOUND>
C/C=C1\NC(=O)[C@H](CCC2CCCCC2)NC(=O)[C@@H](C(C)C)NC(=O)[C@@H]([C@@H](C)CC)NC(=O)[C@H](NC(=O)[C@H](NC(=O)[C@H](CCCN)NC(=O)[C@H]2CCCN2C(=O)[C@H](NC(=O)[C@@H](NC(=O)[C@@H](NC(=O)[C@H](NC(=O)CCCC(C)C)C(C)C)[C@@H](C)O)C(C)C)C(C)C)[C@@H](C)CC)[C@@H](C)OC(=O)[C@H](C(C)C)NC1=O [Compound 63] ({Hexanoyl(5-Me)}-[dV]TV[dV][dP][Orn][d(aIle)][d(aThr)][d(aIle)][dV][hCha][Dhb]V; ester 8-C)

>  <MEASUREMENT UNITS>
µM

>  <VALUE QUALIFIER>
=

>  <NUMERIC VALUE>
1.55

$$$$
